target: T1, purified Integrin αvβ3 (UniProt P06756 31-992; P05106 27-718, limits assumed); test: competitive homologous binding: varied unlabeled ALOS4 against 10 µM ALOS4-FITC on αvβ3-coated wells; competitive homologous binding, unlabeled ALOS4 against 10 µM ALOS4-FITC (panel D)
T1 construct: Purified integrin coated on 96-well plates; also called integrin alpha-v-beta3; αVβ3 integrin
T1 sequence (P06756 31-992 limits assumed, chain 1 of 2): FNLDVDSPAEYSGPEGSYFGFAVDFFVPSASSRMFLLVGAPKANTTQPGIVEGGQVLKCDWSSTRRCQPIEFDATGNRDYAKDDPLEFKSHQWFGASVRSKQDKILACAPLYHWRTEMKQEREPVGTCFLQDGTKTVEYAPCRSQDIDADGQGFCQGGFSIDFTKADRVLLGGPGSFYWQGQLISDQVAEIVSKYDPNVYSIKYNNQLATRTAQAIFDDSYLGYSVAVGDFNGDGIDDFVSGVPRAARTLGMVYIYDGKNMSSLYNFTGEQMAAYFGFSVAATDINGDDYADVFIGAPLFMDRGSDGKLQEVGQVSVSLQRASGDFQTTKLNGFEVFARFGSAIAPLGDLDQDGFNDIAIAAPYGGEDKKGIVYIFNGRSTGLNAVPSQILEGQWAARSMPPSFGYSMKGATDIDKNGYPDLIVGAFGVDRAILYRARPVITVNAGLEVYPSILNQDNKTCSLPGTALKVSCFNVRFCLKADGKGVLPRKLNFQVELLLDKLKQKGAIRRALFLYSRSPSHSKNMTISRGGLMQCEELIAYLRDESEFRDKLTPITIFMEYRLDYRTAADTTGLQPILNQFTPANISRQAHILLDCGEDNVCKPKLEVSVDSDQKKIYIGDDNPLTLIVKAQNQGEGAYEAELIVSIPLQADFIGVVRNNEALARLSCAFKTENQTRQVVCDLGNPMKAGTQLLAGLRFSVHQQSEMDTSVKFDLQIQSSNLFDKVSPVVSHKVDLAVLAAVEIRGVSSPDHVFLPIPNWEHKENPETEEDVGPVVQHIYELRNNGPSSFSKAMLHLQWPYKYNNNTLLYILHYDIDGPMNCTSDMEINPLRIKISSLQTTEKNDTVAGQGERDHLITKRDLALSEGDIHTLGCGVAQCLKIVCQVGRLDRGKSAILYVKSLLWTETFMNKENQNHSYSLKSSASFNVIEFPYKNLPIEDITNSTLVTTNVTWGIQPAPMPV
T1 sequence (P05106 27-718 limits assumed, chain 2 of 2): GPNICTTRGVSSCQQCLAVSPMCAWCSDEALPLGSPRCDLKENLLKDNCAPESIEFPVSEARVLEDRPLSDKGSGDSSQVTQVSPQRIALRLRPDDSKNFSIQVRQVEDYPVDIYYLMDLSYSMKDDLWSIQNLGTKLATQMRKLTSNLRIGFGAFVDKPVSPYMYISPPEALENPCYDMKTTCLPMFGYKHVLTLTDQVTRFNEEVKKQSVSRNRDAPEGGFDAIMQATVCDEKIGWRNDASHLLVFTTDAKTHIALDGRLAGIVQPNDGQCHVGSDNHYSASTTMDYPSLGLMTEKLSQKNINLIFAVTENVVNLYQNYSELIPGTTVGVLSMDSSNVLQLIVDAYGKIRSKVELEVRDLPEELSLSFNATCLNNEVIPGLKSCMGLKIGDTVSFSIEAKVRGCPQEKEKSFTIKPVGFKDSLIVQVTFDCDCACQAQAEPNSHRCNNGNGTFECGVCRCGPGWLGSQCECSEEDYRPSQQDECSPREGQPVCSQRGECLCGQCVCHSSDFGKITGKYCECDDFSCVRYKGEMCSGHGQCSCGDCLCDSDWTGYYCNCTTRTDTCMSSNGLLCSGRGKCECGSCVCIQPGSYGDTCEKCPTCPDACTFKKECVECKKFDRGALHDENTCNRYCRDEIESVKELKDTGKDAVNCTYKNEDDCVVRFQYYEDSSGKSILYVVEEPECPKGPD
pKd: −log10 of the molar value. Bridge positions count the residues as written; N and C are the ends. Ends that are not written are not given here.
Reported Property: pKd

>  <Binder>
CSSAGSLFC (disulfide 1-9 (inferred), Its concentration was varied) [unlabeled ALOS4]

>  <Reported Property>
pKd

>  <Measured Result>
5.59

$$$$
